experiment: Solubility of isolated salt forms (salt screen); settings: water
readout: Solubility

The value of Solubility measured for the molecule COc1c(N2C[C@@H](C)C[C@H](N)C2)ccc2c(=O)c(C(=O)O)cn(C3CC3)c12 [Freebase] turned out to be < 1000 µg/mL

Taken from patent US20070232650A1.
